# credit: paper PMC9482650

# Measured target: T1, DVL3, Q92997
# T1 sequence (Q92997 244-331, limits assumed, looked up): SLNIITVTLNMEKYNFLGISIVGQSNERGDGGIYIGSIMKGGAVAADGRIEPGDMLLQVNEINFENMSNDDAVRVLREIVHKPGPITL
# Assay name: holdup assay
# Design: key: below the threshold = too weak to quantify, mostly under pKd 3.1 to 4
# Measurement parameters: plain residues with an end cap or a label only (N-terminal biotin on a linker: ado-ado)
Attribute measured: pKd

| Binder | Observed result |
| --- | --- |
| QRPYRRGSEI [KCNJ18, B7U540] | below the threshold |
| MHIQEKGFHV [EPHA6, Q9UF33] | below the threshold |
| RSSGGDDFWF [KCNV1, Q6PIU1] | 3.64 |
| LKDDELKTKL [SLCO1A2, P46721] | below the threshold |
